measured on: ELIC R91A (Dickeya chrysanthemi, UniProt P0C7B7, INS163G/R91A)
assay details: biochemical
Type: binding, Erwinia chrisanthemi
setup conditions: ITC, ELIC ligand binding site mutant R91A, 4°C; read-out: Keff
measurement label: Kd (mM)
Give your result in mM as a bare value.

// sample CCCN [propylamine] , its Kd was 1.1

----------
measured on: ELIC WT (Dickeya chrysanthemi, UniProt P0C7B7, INS163G)
assay details: biochemical
setup conditions: ITC, ELIC WT in detergent (UDM), 4°C, single-site isotherm; read-out: effective dissociation constant (Keff)
measurement label: Kd
State the result as a value with its unit after it.

// sample "CCCN" , its Kd was 8 mM

----------
measured on: ELIC R91A/Y258A (Dickeya chrysanthemi, UniProt P0C7B7, R91A/Y257A)
assay details: biochemical
Type: binding, Erwinia chrisanthemi
setup conditions: ITC, ELIC double mutant R91A/Y258A, 4°C; read-out: Keff
measurement label: Kd (µM)
Give your result in µM as a bare value.

Known value: ELIC R91A/Y258A (Dickeya chrysanthemi, UniProt P0C7B7, R91A/Y257A) Kd of the compound CCCN [propylamine] equals 900

----------
measured on: ELIC R91A (Dickeya chrysanthemi, UniProt P0C7B7, INS163G/R91A)
assay details: biochemical
Type: binding, Erwinia chrisanthemi
setup conditions: read-out: Keff
measurement label: Kd
State the result as a value with its unit after it.

Known value: ELIC R91A (Dickeya chrysanthemi, UniProt P0C7B7, INS163G/R91A) Kd of the molecule "CC(=O)OCC[N+](C)(C)C" equals 1400 µM

----------
measured on: ELIC R91A/Y258A (Dickeya chrysanthemi, UniProt P0C7B7, R91A/Y257A)
assay details: biochemical
Assay type: binding, Erwinia chrisanthemi
setup conditions: read-out: Keff
measurement label: pKd
Keep it numeric: pKd is minus log10 of the concentration in mol/L.

// sample CC(=O)OCC[N+](C)(C)C [acetylcholine] , its pKd was 2.70
